Data credit: the RNAGym collection of RNA variant scans (doi:10.7554/elife.80360)

B1: CPEB3 Ribozyme (parent)
chain: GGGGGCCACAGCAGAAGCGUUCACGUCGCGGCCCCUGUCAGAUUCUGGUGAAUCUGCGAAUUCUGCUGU

- Variants of: B1
- Measurement notes: self-cleavage, relative activity (ratio to wild type); higher = more cleavage; co-transcriptional
# label = Condition met if self-cleavage >= 0.5 else Condition not met

Answer whether self-cleavage of GGGGGCCACAGCAGAAGCGCUCACGUCGCGGCCCCUGUCAGAUUCUGAUGAAUCUGCGAAUUCUGCUGU is greater than or equal to 0.5.
Condition not met

Another: GGGGGCCACAGCAGAAGCGUUCACGUCGCGGCCCAUGUCAGACUCUGGUGAAUCUGCGAAUUCUGCUGU
Condition not met

Another: GGGGGCCACAGCAGAAGCGUUCACGUCGCGGCCCCUGUCAGAUUCUGGUGAAUCUUGGAAUUCUGCUGU
Condition not met

Another: GGGGGCCACAGCAGAAGCGUUCACGUCGCGGCCCCUGUCAGAUUCUGGUGUAUGUGCGAAUUCUGCUGU
Condition met

Another: GGGGGCCACAGCAGAAGCGUUCACGUCGCGGCCCCUAUCAGAUUCUGGUGAACCUGCGAAUUCUGCUGU
Condition not met

Another: GGGGGCCACAGCAGAAGCGUUCACGUCGCGGCCCCUGUCAGAUUCUGGUGAAUCUGCGAAUACUGGUGU
Condition not met

Another: GGGGGCCACAGCAGAAGCGUUCACCUCGCGGCCCCUGUCAGAUUCUGGUGAAUCGGCGAAUUCUGCUGU
Condition not met

Another: GGGGGCCACAGCAGAAGCGUUCACGUCGCGGCCCCUGUCAGAUUCUGGUGAAUCCGCGAACUCUGCUGU
Condition not met

Another: GGGGGCCACAGCAGAAGCGUUCACGUCGCGGCCCCUGUCAGAUUCUGCUGAUUCUGCGAAUUCUGCUGU
Condition met

Another: GGGGGCCACAGUAGAAGCGUUCACGUCGCGGCCCCUGUCAGCUUCUGGUGAAUCUGCGAAUUCUGCUGU
Condition met

Another: GGGGGCCACAGCAGAAGCGUUCACGUCGCGGCCCCUGUCAGAUUCUGGCGAAUCUGCGAAUUCUUCUGU
Condition met

Another: GGAGGCCACAGCAGAAGCGUUCACGUCGCGGCCCCUGUCAGAUUCUGGUGAAUCUGCGAAUUCUGAUGU
Condition not met

Another: GGGGGCCACAGCAGAAGCGUUCACGUCGCUGCCCCUGUCAGAUUCUGCUGAAUCUGCGAAUUCUGCUGU
Condition not met

Another: GGGGGCCACAGCAGAAGCGUUCACGUCGUGGCCACUGUCAGAUUCUGGUGAAUCUGCGAAUUCUGCUGU
Condition not met

Another: GGGGGCCACAGCAGAAGCGUUCACGUCGCGGCCCCUGUCAGAUGCUGGUGAAUCUGCGAAUUCGGCUGU
Condition met

Another: GCGGGCCACAGUAGAAGCGUUCACGUCGCGGCCCCUGUCAGAUUCUGGUGAAUCUGCGAAUUCUGCUGU
Condition not met

Another: GGGGGCCACAGCAGAAGCGUUCACGUCGUCGCCCCUGUCAGAUUCUGGUGAAUCUGCGAAUUCUGCUGU
Condition not met
